Taken from patent US9868726B2.

# Assayed target: PDGFRβ (cytoplasmic domain PDGFR-b protein) (Homo sapiens (Human), UniProt P09619)
# Sequence (P09619 554-1106): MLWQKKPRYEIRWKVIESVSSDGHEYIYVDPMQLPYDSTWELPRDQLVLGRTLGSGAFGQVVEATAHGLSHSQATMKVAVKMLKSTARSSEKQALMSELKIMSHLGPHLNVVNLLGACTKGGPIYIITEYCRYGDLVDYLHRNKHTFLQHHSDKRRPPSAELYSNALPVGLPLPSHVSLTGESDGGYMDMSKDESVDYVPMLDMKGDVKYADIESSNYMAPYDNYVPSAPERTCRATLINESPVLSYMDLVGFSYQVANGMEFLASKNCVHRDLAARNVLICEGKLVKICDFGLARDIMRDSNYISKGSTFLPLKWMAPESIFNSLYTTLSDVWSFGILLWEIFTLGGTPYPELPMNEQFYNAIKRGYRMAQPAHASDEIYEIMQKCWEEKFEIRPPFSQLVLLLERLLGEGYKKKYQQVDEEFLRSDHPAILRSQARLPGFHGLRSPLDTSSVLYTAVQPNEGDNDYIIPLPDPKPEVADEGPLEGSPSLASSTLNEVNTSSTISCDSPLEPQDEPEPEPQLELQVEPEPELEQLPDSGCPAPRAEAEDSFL
# Protocol summary: PDGFRβ Kinase Assay (biochemical, ELISA)
# Condition label: 36 μM ATP; read-out: PDGFRβ Enzyme Assay (IC50 nM)
Endpoint label: IC50 (nM)

CS(C)(=O)=NC(=O)c1cnc(N)c(-c2cc3cc(NC(=O)Nc4ccc(Cl)c(C(F)(F)F)c4)ccc3s2)c1; 21
CS(C)(=O)=NC(=O)c1cnc(N)c(-c2cc3cc(NC(=O)Nc4cc(C(F)(F)F)ccc4F)ccc3s2)c1; 27

---

# Assayed target: VEGFR2 (cytoplasmic domain KDR protein) (Homo sapiens (Human))
# Sequence (P35968 786-1356): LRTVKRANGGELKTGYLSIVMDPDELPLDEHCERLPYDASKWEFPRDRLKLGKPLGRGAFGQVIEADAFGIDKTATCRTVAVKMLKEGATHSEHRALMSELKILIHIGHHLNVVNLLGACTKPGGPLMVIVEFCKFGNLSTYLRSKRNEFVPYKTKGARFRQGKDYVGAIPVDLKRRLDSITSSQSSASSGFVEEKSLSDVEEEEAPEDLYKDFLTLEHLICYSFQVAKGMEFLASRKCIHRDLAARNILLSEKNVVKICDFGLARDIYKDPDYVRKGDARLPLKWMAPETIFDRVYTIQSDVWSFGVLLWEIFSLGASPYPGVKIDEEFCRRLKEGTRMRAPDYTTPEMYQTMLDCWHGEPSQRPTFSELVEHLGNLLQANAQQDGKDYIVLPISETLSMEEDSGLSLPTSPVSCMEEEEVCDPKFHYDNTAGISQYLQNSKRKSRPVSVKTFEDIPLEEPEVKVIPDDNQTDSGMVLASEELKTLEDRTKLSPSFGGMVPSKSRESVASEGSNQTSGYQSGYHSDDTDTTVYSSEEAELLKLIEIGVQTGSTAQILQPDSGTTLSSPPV
# Protocol summary: VEGFR2 Kinase Assay (biochemical KDR kinase assay, ELISA)
# Condition label: read-out: VEGFR2 Enzyme Assay (IC50 nM); 2.7 μM ATP
Endpoint label: IC50 (nM)

Examples from the recorded data:
CS(C)(=O)=NC(=O)c1cncc(-c2cc3cc(NC(=O)Nc4cc(C(F)(F)F)ccc4F)ccc3s2)c1 [Example 57]; 7
CS(C)(=O)=NC(=O)c1cnc(N)c(-c2cc3cc(NC(=O)Nc4ccc(Cl)c(C(F)(F)F)c4)ccc3s2)c1 [Example 5]; 6

(a) CS(C)(=O)=NC(=O)c1cnc(N)c(-c2cc3cc(NC(=O)Nc4cc(C(F)(F)F)ccc4F)ccc3s2)c1 [Example 6]
(b) CS(C)(=O)=NC(=O)c1cncc(-c2cc3cc(NC(=O)Nc4ccc(Cl)c(C(F)(F)F)c4)ccc3s2)c1 [Example 58]
query: Exercise: compare a and b ; which one has the greater IC50? Answer by quoting the chosen item's label.
result: b
